tested on: HOP-92 NSCLC; experiment: NCI-60 one-dose screen, 48 h (100 = growth as untreated, 0 = no growth, -100 = all killed); details: 10 µM unless noted
This is part of a sample that, as a whole, favours compounds with a hit. Of some 83,000 tested, about 20% had one in any assay.
Classes based on growth: lower band = under 40%, central band = from 40% up to 80%, upper band = 80% and over

MOLECULE	ASSIGNED LABEL
CCN(CC)CCOc1ccc(/C(=C(\C)c2ccc(F)c(OC)c2)c2ccc(Cl)cc2)cc1	lower band

Please let me know in which category the item Cc1cnc(Nc2ccc(N3CCN(C)CC3)cc2)nc1Nc1ccc(Cl)c(NS(=O)(=O)C(C)(C)C)c1 belongs.
lower band

Please let me know in which category the item CCCc1cc(=O)oc2c3c(c4c(c12)OC(C)(C)C=C4)O[C@@H](C)[C@H](C)C3=O belongs.
central band

Please let me know in which category the item CCNCCNc1cc(-c2ccc(Cl)cc2)c(C#N)c2nc3ccccc3n12 belongs.
central band

Please let me know in which category the item Cc1c(Cl)cccc1NS(=O)(=O)c1ccccc1 belongs.
upper band

Please let me know in which category the item CCOC(=O)C(O)C(O)(c1ccccc1)c1ccccc1 (stereo not given) belongs.
upper band

All values here come from PubChem BioAssay (NCI).
